assay: Half life in rat; format: ADME, organism-based; settings: in vivo
I'd be grateful if you could share measured half-life for these entries.
Numbers only, in min.

Known results for compounds:
- CHEMICAL STRUCTURE: "COc1ccc(C(=O)NC2CCCC2)cc1-c1[nH]nc2nc(Nc3ccc(F)cc3F)ccc12"
  MEASUREMENT UNIT: "min"
  EXPERIMENTAL RESULT: 96
- CHEMICAL STRUCTURE: "COc1ccc(C#CC(C)(C)N)cc1-c1[nH]nc2nc(Nc3ccc(F)cc3F)cnc12"
  MEASUREMENT UNIT: "min"
  EXPERIMENTAL RESULT: 156

Query: Please give the measured half-life for this compound: COc1ccc(C(=O)NC2CCOCC2)cc1-c1[nH]nc2nc(Nc3ccc(F)cc3F)ccc12
Reply: 84
